system: mouse; experiment: Acute toxicity (LD50), mouse ig
This listing pairs compounds with measured LD50.
Enter your answer as a number in mg/kg; do not include the unit.

CC(=O)OCC1OC(OP(=O)(O)N(CCCl)CCCl)CC(Br)C1OC(C)=O (centres unmarked) | 2223.7

# ---- query compound ----
Request: Report measured LD50; entry is CC(=O)OCC1OC(OP(=O)(NCCCl)NCCCl)CC(Br)C1OC(C)=O (single isomer, unassigned)
Response: 2205.8

###

tested on: AsPc human pancreatic cancer cells; assay: Mouse transplant tumor, AsPc human pancreatic cancer; details: 125 mg/kg once a day for 7 days, animal weight at end;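 further: Saline-treated mice served as the control group, with a CTX-treated group as positive reference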
Measured weight end accompanies every entry in the list below.

Study these solved cases before continuing.
CC(=O)OCC1OC(OP(=O)(O)N(CCCl)CCCl)C(Br)CC1OC(C)=O (centres unmarked) | 18.4
CC(=O)OCC1OC(OP(=O)(NCCCl)NCCCl)C(Br)CC1OC(C)=O (single isomer, unassigned) | 18.4
CC(=O)OCC1OC(Br)C(Br)CC1OC(C)=O (single isomer, unassigned) | 18.3

Request: Query weight end for CC(=O)OCC1OC(OP(=O)(O)N(CCCl)CCCl)CC(Br)C1OC(C)=O (centres unmarked)
Response: 18.3

Request: Quote weight end reported for CC(=O)OCC1OC(OP(=O)(NCCCl)NCCCl)CC(Br)C1OC(C)=O (single isomer, unassigned) please.
Response: 18.6
